Please respond with reported Ki for every item in the list.
# EXPERIMENTAL_SYSTEM: hERG channel (Homo sapiens)
# Construct: purchased; host or cells: HEK-293 cells stably expressing hERG (membranes)
# Sequence (Q12809 whole entry): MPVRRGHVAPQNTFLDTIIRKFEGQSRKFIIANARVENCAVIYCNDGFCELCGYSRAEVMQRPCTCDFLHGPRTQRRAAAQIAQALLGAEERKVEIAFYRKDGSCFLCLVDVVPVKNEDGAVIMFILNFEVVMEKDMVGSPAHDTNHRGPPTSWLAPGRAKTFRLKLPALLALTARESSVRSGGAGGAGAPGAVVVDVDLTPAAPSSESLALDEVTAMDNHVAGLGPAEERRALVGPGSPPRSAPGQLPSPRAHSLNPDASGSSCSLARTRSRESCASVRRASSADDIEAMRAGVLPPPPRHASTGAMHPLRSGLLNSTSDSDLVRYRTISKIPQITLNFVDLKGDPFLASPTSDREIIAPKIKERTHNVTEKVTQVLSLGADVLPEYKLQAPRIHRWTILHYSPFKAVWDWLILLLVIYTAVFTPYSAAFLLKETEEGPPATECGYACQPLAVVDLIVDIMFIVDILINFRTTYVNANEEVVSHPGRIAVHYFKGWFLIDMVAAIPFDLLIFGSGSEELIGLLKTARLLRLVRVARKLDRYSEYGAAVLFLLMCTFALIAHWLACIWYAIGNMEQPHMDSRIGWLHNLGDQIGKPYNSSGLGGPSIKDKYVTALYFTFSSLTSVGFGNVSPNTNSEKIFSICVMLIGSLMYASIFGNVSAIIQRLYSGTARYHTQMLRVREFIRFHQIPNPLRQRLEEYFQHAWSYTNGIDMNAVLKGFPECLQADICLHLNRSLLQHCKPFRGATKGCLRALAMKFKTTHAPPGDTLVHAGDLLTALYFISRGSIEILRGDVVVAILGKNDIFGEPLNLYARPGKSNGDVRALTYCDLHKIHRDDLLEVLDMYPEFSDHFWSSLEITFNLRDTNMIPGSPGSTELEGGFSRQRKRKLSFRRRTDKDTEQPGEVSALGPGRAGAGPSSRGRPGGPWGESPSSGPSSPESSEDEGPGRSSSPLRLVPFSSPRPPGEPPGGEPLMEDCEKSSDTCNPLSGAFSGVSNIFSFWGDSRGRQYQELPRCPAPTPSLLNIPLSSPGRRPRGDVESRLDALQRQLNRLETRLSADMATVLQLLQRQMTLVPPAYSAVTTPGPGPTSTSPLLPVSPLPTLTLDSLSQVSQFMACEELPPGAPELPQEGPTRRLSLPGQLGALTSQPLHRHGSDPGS
# ASSAY_METHOD_TEXT: [3H]Dofetilide binding assay, HEK-293 cell membrane preparation
# CONDITION_INFO: hERG Binding: Mean Ki (nM), [3H]dofetilide binding, HEK-293 membranes; mean of n>=3 unless N given
Form entry: value (nM) — number only.

// CC(Cc1ccc(F)c(F)c1)NCCCc1cccc(C(F)(F)F)c1 (stereo not drawn) [Compound 250] : Ki value = 4100

Just so you know, measured Ki for CC(Cc1ccc(F)cc1)NCCCc1ccc(Cl)cc1 (stereo not drawn) [Compound 188] came out at 500

The recorded Ki for CC(Cc1ccc(F)cc1)NCCCc1cccnc1 (stereo not drawn) [Compound 278] is 3980
